# target-or-system: 5HT2B receptors (Homo sapiens, UniProt P41595)
# Construct: expressed in transfected cells; host or cells: CHO-K1 cells
# Sequence (P41595 whole entry): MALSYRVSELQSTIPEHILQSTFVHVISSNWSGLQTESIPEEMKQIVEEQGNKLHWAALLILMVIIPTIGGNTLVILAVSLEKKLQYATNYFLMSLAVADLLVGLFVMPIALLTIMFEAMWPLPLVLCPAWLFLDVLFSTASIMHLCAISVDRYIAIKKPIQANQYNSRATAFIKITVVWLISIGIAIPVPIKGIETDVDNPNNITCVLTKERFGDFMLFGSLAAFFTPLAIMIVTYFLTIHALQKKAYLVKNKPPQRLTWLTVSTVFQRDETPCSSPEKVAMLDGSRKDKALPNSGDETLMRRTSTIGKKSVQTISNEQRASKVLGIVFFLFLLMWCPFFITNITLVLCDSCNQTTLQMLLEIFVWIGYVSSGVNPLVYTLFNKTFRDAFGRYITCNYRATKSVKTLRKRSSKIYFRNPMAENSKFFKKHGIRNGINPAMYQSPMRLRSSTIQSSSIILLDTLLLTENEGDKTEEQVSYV
# test-summary: Human 5-HT2B functional high throughput screening assay in CHO-K1 cells (calcium flux)
# Type: cell-based
# condition-summary: CHO-K1
Give Emax for every item shown.
Dear colleague, please send the value followed by its unit.

* Brc1cccc2c1[C@H]1CNC[C@@H]1CCO2 (relative stereo) [Example 377] | 30%
* Fc1cc(F)c2c(c1)[C@H]1CNC[C@@H]1CCO2 (relative stereo) [Example 283] | 50%
* Clc1cccc2c1NCC[C@@H]1CNC[C@@H]21 (relative stereo) [Example 392] | 65%
* COc1ccc2c(c1)[C@H]1CNC[C@@H]1CC=C2 (relative stereo) [Example 266] | 25%
* O=C1NC[C@@H]2CNC[C@H]2c2cccc(F)c21 (single isomer, unassigned) [Example 60] | 80%
* CC(C)C(=O)N1CC[C@@H]2CNC[C@H]2c2ccccc21 (relative stereo) [Example 333] | 40%

Parameters: items (list). Returns: Emax for each item.
1. Cc1ccc(S(=O)(=O)N2Cc3cccnc3[C@@H]3CNC[C@H]3C2)cc1 (relative stereo) [Example 356]
2. Clc1ccc2c(c1)[C@H]1CNC[C@@H]1CCO2 (relative stereo) [Example 95]
3. c1cncc(-c2cccc3c2OCC[C@H]2CNC[C@H]32)c1 (relative stereo) [Example 368]
4. COc1ccc2c(c1)[C@H]1CNC[C@@H]1CCC2=O [Example 259]
5. Clc1ccc2c(c1)[C@@H]1CNC[C@H]1CCN2 (relative stereo) [Example 391]
6. O=C1NC[C@@H]2CNC[C@H]2c2ncccc21 (relative stereo) [Example 153]
7. Brc1ccc2c(c1)[C@@H]1CNC[C@H]1CCN2 (relative stereo) [Example 396]
8. CN1C[C@H]2CNC(=O)c3ccccc3[C@@H]2C1 (relative stereo) [Example 69]

1: 15%; 2: 35%; 3: 20%; 4: 85%; 5: 70%; 6: 30%; 7: 60%; 8: 70%

Parameters: items (list). Returns: Emax for each item.
1. c1ccc2c(c1)OCC[C@H]1CNC[C@@H]21 (relative stereo) [Example 96]
2. Fc1ccc2c(c1)OCC[C@H]1CNC[C@H]21 (relative stereo) [Example 109]
3. Cc1ccccc1S(=O)(=O)N1Cc2cccnc2[C@@H]2CNC[C@H]2C1 (relative stereo) [Example 341]
4. CN1C[C@@H]2CNC(=O)c3cc(F)cc(F)c3[C@H]2C1 [Example 162]
5. Brc1cccc2c1OCC[C@H]1CNC[C@@H]21 (relative stereo) [Example 332]
6. COc1cccc2c1[C@H]1CN(C)C[C@@H]1CCO2 (relative stereo) [Example 273]
7. O=C1NC[C@@H]2CNC[C@H]2c2c(F)cccc21 (relative stereo) [Example 67]

1. 50%
2. 55%
3. 65%
4. 40%
5. 20%
6. 35%
7. 110%
